Assay: Acute toxicity (LD50)
Settings: mouse, in vivo; mice, oral administration
endpoint name: LD50

1. Cc1c(C)c2c(c(C)c1O)CCC(C)(CCOC(=O)c1cccnc1)O2 (centres unmarked)
> 5000 mg/kg

Here's the next entry for you.
Exercise: For the compound shown here, Cc1c(C)c2c(c(C)c1OC(=O)c1cccnc1)CCC(C)(CCOC(=O)c1cccnc1)O2 (centres unmarked) , give the reported LD50.
Key: > 5000 mg/kg
